Test system: HUVEC (human umbilical vein endothelial cell)
assayExplanation: MTT antiproliferative assay, HUVEC
Assay type: cell-based
conditionLabel: Homo sapiens, HUVEC; MTT assay, 48 h incubation
So basically: is IC50 under 10 µM? Then criterion met. Not under? Then criterion not met.

Field: example entries. Status: answers known.
## Input Decide: IC50 of Cc1ccc(NC(=O)Nc2nnc(Sc3ncnc4sc5c(c34)CCN(Cc3ccncc3)C5)s2)cc1 [Compound 11n] strictly below 10 µM?
## Output criterion met

## Input Please check: IC50 for Cc1cccc(NC(=O)Nc2nnc(Sc3ncnc4sc5c(c34)CCN(Cc3ccncc3)C5)s2)c1 [Compound 11m] , strictly under 10 µM or not?
## Output criterion met

## Input Hello, is IC50 of the following molecule strictly smaller than 10 µM? COc1cccc(NC(=O)Nc2nnc(Sc3ncnc4sc5c(c34)CCN(Cc3ccncc3)C5)s2)c1 [Compound 11o]
## Output criterion not met

## Input Take the molecule Cc1cccc(NC(=O)Nc2nnc(Sc3ncnc4sc5c(c34)CCN(Cc3ccccc3)C5)s2)c1 [Compound 11b] and say whether its IC50 is less than 10 µM.
## Output criterion not met

## Input Lab note: confirm whether the reported IC50 for this molecule is below 10 µM, equality not counting. molecule: Cc1ccc(NC(=O)Nc2nnc(Sc3ncnc4sc5c(c34)CCN(Cc3ccccc3)C5)s2)cc1 [Compound 11c]
## Output criterion not met

## Input Given the entry O=C(Nc1cccc(F)c1)Nc1nnc(Sc2ncnc3sc4c(c23)CCN(Cc2ccccc2)C4)s1 [Compound 11e] , would its reported IC50 be below 10 µM?
## Output criterion not met

## Input Input O=C(Nc1cccc(C(F)(F)F)c1)Nc1nnc(Sc2ncnc3sc4c(c23)CCN(Cc2ccncc2)C4)s1 [Compound 11x] ; condition: IC50 strictly below 10 µM. Does it hold?
## Output criterion met

## Input Does this molecule meet the criterion IC50 < 10 µM? O=C(Nc1nnc(Sc2ncnc3sc4c(c23)CCN(Cc2ccncc2)C4)s1)Nc1ccccc1Cl [Compound 11s]
## Output criterion met

## Input State whether 10 µM exceeds IC50 recorded for O=C(Nc1ccccc1)Nc1nnc(Sc2ncnc3sc4c(c23)CCN(Cc2ccccc2)C4)s1 [Compound 11a] .
## Output criterion not met

## Input A record lists O=C(Nc1ccc(Cl)c(Cl)c1)Nc1nnc(Sc2ncnc3sc4c(c23)CCN(Cc2ccncc2)C4)s1 [Compound 11v] . Is its IC50 below 10 µM?
## Output criterion not met

Next:
## Input Identify whether the molecule Cc1ccc(NC(=O)Nc2nnc(Sc3ncnc4sc5c(c34)CCN(Cc3ccccc3)C5)s2)cc1Cl [Compound 11i] records IC50 below 10 µM.
## Output criterion not met

## Input Answer whether the molecule O=C(Nc1cccc(Cl)c1)Nc1nnc(Sc2ncnc3sc4c(c23)CCN(Cc2ccncc2)C4)s1 [Compound 11t] has IC50 strictly less than 10 µM
## Output criterion not met

## Input For this molecule, is IC50 lower than 10 µM? O=C(Nc1ccc(Cl)c(C(F)(F)F)c1)Nc1nnc(Sc2ncnc3sc4c(c23)CCN(Cc2ccncc2)C4)s1 [Compound 11y]
## Output criterion not met

## Input I'd appreciate it if you could check whether Cc1ccc(NC(=O)Nc2nnc(Sc3ncnc4sc5c(c34)CCN(Cc3ccncc3)C5)s2)cc1Cl [Compound 11w] has IC50 smaller than 10 µM.
## Output criterion met

## Input hey, is IC50 for O=C(Nc1ccc(F)cc1)Nc1nnc(Sc2ncnc3sc4c(c23)CCN(Cc2ccncc2)C4)s1 [Compound 11r] lower than 10 µM or not?
## Output criterion not met
